The origin of these recorded values is the supplement of paper PMC9170038.

Test system: K4 kissing-loop RNA reporter;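 note: bound reporter read as fluorescence of individual clusters on recovered sequencing chips by microscopy, with normalized cluster intensities fitted with a binding model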
Test: apparent KD of K4 kissing-loop reporter; higher = weaker reporter binding
Details: Eterna round: R107; input ligand: tryptophan 2.4 mM
Assignment: determine reported apparent KD of K4 kissing-loop reporter for the given sequences.
Numbers only, in nM.

See these solved cases before continuing.
Query string: Return apparent KD of K4 kissing-loop reporter for the following sequence: CUCCUUGGCUAAGGAUAUCGUAGUGAUGUUAUGGUCUUUGCUAAGACUUCUGAUAUUGAAUUCCGACGAGAAGGUAGAAGGACGG [theeternabot_exclusion_KL_FMN_B_18]
Result string: 626

Query string: For the sequence CAUACGCAUGGAGGAUAUGAGAUUUCUCAUGUCAUUUAAUAUUCUCAGUGAUGUUGAGAUUUUGGCUCAGAAGGCCAUGUGUAUG [Ex FMN B 19] , give its reported apparent KD of K4 kissing-loop reporter.
Result string: 273

Query string: Output apparent KD of K4 kissing-loop reporter of UCGACUGUGUCGGCCGCCACUGGUAUAAACGGACUAUAACGACAUGAGUGAUGUUCAUGUUCGUCUAGGACCGGGACACAAUGUA [Tryp B Ex t3]
Result string: 90

Query string: Quote apparent KD of K4 kissing-loop reporter reported for UUUCCAGAUAAGUGGGAACGCUCCAUAACAGAGGAUAUCAGAGCGCUGAGAAGGCUGUUUUACAGUGAUGUUGUAAGUGUGGAGC [#10 K4 FMN A Same State] please.
Result string: 252

Query string: Give a short answer stating reported apparent KD of K4 kissing-loop reporter for AGAUUCGACACGGCCGCCACUCGUGGUGGAUUACCUAGUGUCGAAGUUGAGUGAUGUUCAAGUACGAGGACCGGGUGUUGAGUCU [KL-XTryp-B8 #analogue] .
Result string: 500

Quick request: apparent KD of K4 kissing-loop reporter for each listed item, please.
1. GCCGUAGAUUGAAGGAGCGGGCCGUAGUGAUGUUACGCCAAUUUAUCUUUUCUUGAUGUGGCCCAGGUAGGUCGCAAUCUACGGC
2. GCUGUCCAGUUCGAUACCAGAGUUAUCGCACUGUAGUGAUAAAGUGAUGUUUUAUCAGUCCUCCCUUGGCAGCGAUGCCCGGCUG [theeternabot_exclusion_KL_Theo_B_25]
3. UGACUGGACUGAAGGAGCGCUGAAGGAGCGUAAGCAGUGAUGUUGCUUACAGGUAGGUCGCAGCAGGUAGGUCGCAGUCUAGUCU
4. UGUCAUUGGUCUGAUACCAGGUUGAUCGGUAAACGAUCUCCUGGAGUGAUGUUCCAAAAUAUCCCUUGGCAGCAGACCGAUGACU [TheoBS 6 #SwitchBubble #StaticStem]
5. GAUGCCAUGAUCCUCCUGGUAUCGGGAGAUACCAGCGUGCUGACACGCCCUUGGCAGCUCCAUUCGAGAGUGAUGUUGUCGAGAA [KL-SSTheo-A8 #analogue]
6. AAGUGAUGUUGUAGUGAUGUUGUGAUGUUGCAGGAUAUAUAGUGAUGUAGAAGGGUAUGUACUUAUUUGUUUUUUGAGUUAUGUU [zzazzrmullin]
7. ACAGUCGGCUGUGAUACCAGUCGUAUUACAACAUGUUGCAGUGAUGUUGCGAGAUAGGAUGACCCUUGGCAGCACUCAGUACGAU [Same State Theophylline B GF9]

Result string:
1. 193
2. 154
3. 99.6
4. 350
5. 287
6. 53.8
7. 144
